Entries and their inhibition at 10 µM
target: human OX1 receptor (Homo sapiens, UniProt O43613); construct: expressed in transfected cells; host or cells: CHO cells; assay: Measurement of orexin receptor antagonistic activity (calcium fluorescence, FLIPRtetra); assay type: cell-based; conditions: CHO, 10 μM test compound; CHO cells expressing human OX1 receptor; OX-A 1 nM; read-out: Human Orexin1 receptor inhibition (at 10 μM)
Sequence (O43613 whole entry): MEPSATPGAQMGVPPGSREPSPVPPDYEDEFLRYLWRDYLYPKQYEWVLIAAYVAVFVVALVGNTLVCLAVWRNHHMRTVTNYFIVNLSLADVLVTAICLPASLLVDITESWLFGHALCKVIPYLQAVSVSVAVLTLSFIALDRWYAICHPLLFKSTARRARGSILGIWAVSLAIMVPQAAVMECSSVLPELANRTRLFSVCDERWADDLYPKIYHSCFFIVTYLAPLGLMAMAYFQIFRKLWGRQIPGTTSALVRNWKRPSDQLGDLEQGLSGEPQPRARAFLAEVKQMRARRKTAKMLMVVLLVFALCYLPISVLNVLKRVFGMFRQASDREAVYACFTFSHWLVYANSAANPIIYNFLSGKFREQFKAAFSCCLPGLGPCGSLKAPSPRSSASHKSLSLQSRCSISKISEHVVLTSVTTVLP
Counter-ions that a name gives are not always drawn.
MEASURED METRIC: inhibition at 10 µM (%)

compound=Cc1cc(N2CCN(C(=O)c3c(F)cccc3-n3nccn3)C[C@H](C)O2)nc(C)n1 data_value=51
compound=Cc1csc(N2CCN(C(=O)c3cc(F)ccc3-n3nccn3)[C@H](C)CO2)n1 data_value=8
compound=COc1cc(N2CCN(C(=O)c3ccccc3-n3nccn3)[C@H](C)CO2)nc(OC)n1 data_value=94
compound=COc1cccc(N2CCN(C(=O)c3ccccc3-n3nccn3)[C@H](C)CO2)n1 data_value=93
compound="Cc1cc(C)nc(N2CCN(C(=O)c3cc(F)ccc3-n3nccn3)[C@H](C)CO2)n1 [Example 161, hydrochloride]" data_value=46
